Experiment: protein stability index of a GFP-peptide fusion (yeast GPS) (PSI 1-4); higher = more stable; sorted into four equal gates, so the index is relative within each strain
Settings: san1∆
Decision: protein stability index >= 3 yields YES, all other cases yield NO.

As a guide, the following entries are already answered.
>  <orderedResidues>
TSTVNRLNTVTRVHQLM [MCD1]

>  <groupLabel>
NO

$$$$
>  <orderedResidues>
DVTHTLGMLDDNKMDSV [SMC4]

>  <groupLabel>
YES

$$$$
>  <orderedResidues>
DLLPNSFAKLVPCEGKD [SMC2]

>  <groupLabel>
NO

$$$$
>  <orderedResidues>
GENNINFQKASATLDGC [BRN1]

>  <groupLabel>
YES

$$$$

Decide: protein stability index of DRTLPHFSKDDYSPESK [RPO21] >= 3?
NO

Repeat with EGTPINNVYFAAGALFV [RPN14]
NO

Could you do the same for RYIWRSLKDLSSLRNQE [RPN3] , please?
NO

One more sequence: EFESELKNVEETQEIKE [ESC2]
YES
